# Test system: UO-31 renal
# Experimental protocol: NCI-60 one-dose screen, 48 h (100 = growth as untreated, 0 = no growth, -100 = all killed)
# Measurement context: 10 µM unless noted
Compounds without any hit were thinned out: in the full panel of roughly 83,000, 20% have a hit.
Recorded endpoint: growth (%)
Numbers only here, please. The scale is %.

Which growth is listed for CCCCCCCCN(CCCCCCCC)C(=O)CCl ?
73.3

Bench note: what growth did CCN1C(=O)N(CC)C2C1NN=c1s/c(=C\c3ccco3)c(=O)n12 (configuration not stated) show?
60

Need growth, item CCCCCCCCCCCCCCCCCC(=O)OCCCCCCCCCCCCC
95

Form field: reported growth of COc1cc(C2CC(c3ccc(Cl)cc3)=NN2C(C)=O)ccc1Oc1ccnc2cc(Cl)ccc12 (configuration not stated)
57.5

Bench note: what growth did COc1ccc2nc(C)cc(Sc3nc4ccccc4s3)c2c1 show?
16.7

Which value of growth has been reported for CS(=O)(=O)c1ccc(C(=O)N/N=C/c2ccccc2O)cc1 in the records?
18

Suppose we examine the molecule COc1cnc2c(c1)C(=O)c1c-2n(CCCN2CCCC2)c(=O)c2cc(Cl)ccc12 ; what growth value has been reported?
15.9

Could you tell me which growth is on file for CC(NC(=O)c1ccccc1)C(=O)Nc1ccccc1 (configuration not stated) ?
94.9

# input molecule: O=C(O/C(=C/c1ccccc1)C(F)(F)F)c1ccccc1 ; wanted: its growth
102

Param item = CSc1nc(N)c2[nH]c(-c3cc4ccccc4[nH]c3=O)nc2n1 ; retrieve measured growth.
57.3

// returns reported growth for input COc1ccc(C2=NNC(c3ccc(Oc4nc5c(c(=O)n(C)c(=O)n5C)n4C)c(OC)c3)C2)cc1 (configuration not stated)
81.2

Which value of growth has been reported for Nc1nc(N)c2cc(NCc3ccc(Cl)c(Cl)c3)ccc2n1 in the records?
-75.4

For O=C(Nc1ccncc1)C(=O)c1cn(S(=O)(=O)c2cccc(Cl)c2F)c2ccccc12 , what is its reported growth?
56.9

Returns the measured growth for the input molecule. Input: O=C1Nc2ccc(Cl)cc2/C1=C\c1c(-c2ccc(F)cc2)nc2ccccn12
6.63

Item CCOC(OCC)c1cnc2nc(NC(C)=O)[nH]c(=O)c2n1 has what recorded growth?
82.6

Query: growth; subject: COc1ccc(-c2nc(SCCC(C)C)nc(Nc3ccc(C(=O)O)cc3)c2C#N)cc1
67

# growth lookup, item C(=Nc1ccc(-c2ccc(N=Cc3ccccc3)cc2)cc1)c1ccccc1
66.6

Using the record for CCc1onc(-c2ccc(OC)cc2)c1-c1ccccc1OCCN(CC)CC , report its growth.
56.8

growth for CCN(CC)CCNC(=O)n1cc(-c2ccncc2)c(-c2cc(Cl)cc(OC)c2)n1 ?
43.8

Can you look up the measured growth of NC(N)=NC1CCCCC1 for me?
84.7

Given CC1=CC(=O)OC1C/C=C(\C)CCC1[C@@]2(C)CCC[C@@](C)(C(=O)O)C2CC[C@@]1(C)O (some centres not stated) , state its recorded growth.
32.2

Looking for the measured growth of Oc1ccccc1-c1nnc(COc2ccc(Cl)cc2Cl)o1 , can you help?
30.2

###

# System: A498 renal
# Experimental protocol: NCI-60 one-dose screen, 48 h
# Measurement context: 10 µM unless noted
The panel holds about 83,000 compounds, 20% with a hit somewhere; the sample as a whole holds those more often. Active and inactive are the calls of the source. How the source made its calls: active means growth percent below 10; inactive means the rest.
# valid calls are yes (active), no (inactive); nothing else

Record request — test call for COc1ccc(C2=NNC(c3ccc(Oc4nc5c(c(=O)n(C)c(=O)n5C)n4C)c(OC)c3)C2)cc1 (stereo not given)
no

Per the records of this test, what outcome belongs to CC(C)(C)c1nn(-c2ccccc2)c2c1C(=O)CSC(c1ccccc1Cl)N2 (stereo not given) ?
no

Dear colleague, could you share the recorded outcome for CCN(CC)CCCC(C)Nc1ccnc2ccc(Oc3ccccc3)cc12 (stereo not given) when you have a moment?
no

Hi team, can someone confirm the assay call for COc1cc(NC(=O)CSc2nc3ccc(Cl)cc3c(=O)n2-c2ccccc2)cc(OC)c1OC ?
no

Query: recorded result category for CC(NC(=O)c1ccccc1)C(=O)Nc1ccccc1 (stereo not given) in this test
no

What was the test verdict on CN1C(=O)N(C)C2C1NN=c1s/c(=C\c3ccc(Br)cc3)c(=O)n12 (stereo not given) ?
no

Write down the call the test reported for this molecule. Item: Nc1ccc(C2=NNC(=O)Cc3cc4c(cc32)OCCO4)cc1Cl
no

Please state the recorded outcome for this molecule: c1cc(C2CCCCC2)ccc1-c1cnc2nonc2n1
yes

Recorded call for CC(C)(C)[Si](C)(C)OC1[C@@H](O[Si](C)(C)C(C)(C)C)[C@@H](CNC(=O)NC(=O)NC(=O)CI)O[C@H]1n1cnc2c(NC(=O)Nc3ccccc3)ncnc21 (stereo not given in full) ?
no

Hi team, can someone confirm the assay call for COc1ccc(/C=N/NC(N)=S)c(OC)n1 ?
no

Entry CCN(CC)CCNC(=O)C(F)(F)C(F)(F)C(F)(F)F : call = ?
no

Hello, I am checking results. What call was entered for CC(C)(CCc1ccccn1)C(=O)CCCc1ccccn1 ?
no

Lab log entry: COc1ccc(-n2c(COc3ccc(F)cc3)n[nH]c2=S)cc1 — outcome as called in the assay?
no

Dear all, I need the recorded test outcome for COc1cccc(-c2cc(-c3cccs3)c(C#N)c(=O)[nH]2)c1 , thank you.
no

Called result for Nc1c(N)c2ccccc2c2ccccc12
no

Assay outcome for O=S(=O)(Cc1ccc(Cl)cc1Cl)c1ccc(Cl)cc1 : what was it?
no

Write down the call the test reported for this molecule. Item: COc1cc([N+](=O)[O-])cc(OC)c1OC
no

How was CC(=O)c1ccc(Br)c([N+](=O)[O-])c1 classified in this test?
no

Called result for FC(F)(F)c1cc(-c2nnc3n2N=C(Cl)CS3)cc(C(F)(F)F)c1
no

Test call for this molecule, please: COc1cnc2c(c1)C(=O)c1c-2n(CCCN2CCNCC2)c(=O)c2cc(Cl)ccc12
no

Which result was noted for this molecule in the test: CCCCn1cnc2c(SCc3ccc([N+](=O)[O-])cc3)nc(N)nc21
no

Hi, do you know how COc1ccc(-c2conc2-n2nc(-c3ccccc3)nc2-c2ccccc2)cc1 came out in this test?
no

Fill in: this test's call for CC(=O)NC1C(O[C@H]2C[C@H]3[C@@H]4CC=C5C[C@@H](O)CC[C@]5(C)[C@H]4CC[C@]3(C)[C@H]2[C@H](C)C(=O)CCC(C)C)OCC(O)C1O (stereo not given in full) is ___
yes

State the result this test recorded for CC(=O)c1ccc(N2C(=O)c3ccc(Oc4ccccc4)cc3C2=O)cc1 .
no

Please indicate how the test categorized CO[C@H](C(=O)[C@@H](O)[C@@H](C)O)[C@@H]1Cc2cc3cc(O[C@H]4C[C@@H](O[C@H]5C[C@@H](O)[C@H](O)C(C)O5)[C@H](O)C(C)O4)c(C)c(O)c3c(O)c2C(=O)[C@H]1O[C@H]1C[C@@H](O[C@H]2C[C@@H](O[C@H]3C[C@](C)(O)C(=O)C(C)O3)[C@@H](O)C(C)O2)[C@H](O)C(C)O1 (stereo not given in full) .
yes

Record lookup: outcome of this test for S=C(Nc1ccc(Cl)cc1)Nc1ccc(Cl)cc1 (tested in a mixture with another compound) ?
yes

Would you mind telling me which call this test gave CC(=O)Nc1ccc(/C=N/N2CCCCCC2)cc1 ?
no

Per the records of this test, what outcome belongs to O=C(N/N=C/c1ccc([N+](=O)[O-])o1)c1ccc(O)cc1 ?
no

Hi, do you know how COc1ccc(C(=O)N2N=C(c3ccc(F)cc3)CC2c2cn(-c3ccccc3)nc2-c2ccccc2)cc1 (stereo not given) came out in this test?
no

Would you mind telling me which call this test gave COc1ccc(C(=O)O)cc1.[Ag] ?
no

I'd appreciate the recorded outcome for Cc1ccc(C(CN(C)C)C(=O)c2ccccc2)cc1 (stereo not given) from this test.
no

Which result was noted for this molecule in the test: CCCCCCCC/C=C\CCCCCCCC(=O)OCCCCCC
no

Entry O=C(Nc1ccccc1)c1cc2ccccc2s1 : call = ?
no

Call for entry COc1ccc(C2NC(=O)c3cc4c(cc3N2)OCO4)cc1 (stereo not given) :
yes

Hi team, can someone confirm the assay call for C=C1C(=O)O[C@H]2[C@H]1CC/C(COC(=O)NCc1c[nH]c3ccc(OC)cc13)=C\CC[C@@]1(C)O[C@@H]21 ?
no

What was the test verdict on Cn1c(-c2ccccc2)cc(=O)n1-c1ccccc1 ?
no

Hi team, can someone confirm the assay call for COc1cc(/C=N/NC(=O)Cn2c(-c3ccc(C)o3)nc3ccccc32)ccc1OCc1ccccc1 ?
no

What was the test verdict on CC[C@H](C)[C@H](N)C(=O)O ?
no

Write down the call the test reported for this molecule. Item: CC(C)(C)OC(=O)N1CCCN(CCNc2nccc(-c3c(-c4cccc(O)c4)nc4sccn34)n2)S1(=O)=O
no

Identify the outcome logged in this assay for the molecule shown: CCOC(=O)C1OC2(CCCC2)OC1C(=O)OCC (stereo not given)
no
